# method_notes: Half life in BALB/C mice at the dose of 50 mg/kg by i.p. administration
# Format: ADME, organism-based
# Design: dose 50 mg/kg, route intraperitoneal
# stated_conditions: mouse, in vivo, ip
measurement_kind: half-life

Consider the compound shown here: `O=C(Nc1cccnc1)c1c2n(c3c(N4CCN(CCc5ccc(F)c(F)c5)CC4)ncnc13)CCCC2` What is its recorded half-life?
4.48 h

###

// reported pIC50 per item
# study_system: Multidrug resistance-associated protein 1 (Homo sapiens, UniProt P33527)
# Sequence (P33527 whole entry): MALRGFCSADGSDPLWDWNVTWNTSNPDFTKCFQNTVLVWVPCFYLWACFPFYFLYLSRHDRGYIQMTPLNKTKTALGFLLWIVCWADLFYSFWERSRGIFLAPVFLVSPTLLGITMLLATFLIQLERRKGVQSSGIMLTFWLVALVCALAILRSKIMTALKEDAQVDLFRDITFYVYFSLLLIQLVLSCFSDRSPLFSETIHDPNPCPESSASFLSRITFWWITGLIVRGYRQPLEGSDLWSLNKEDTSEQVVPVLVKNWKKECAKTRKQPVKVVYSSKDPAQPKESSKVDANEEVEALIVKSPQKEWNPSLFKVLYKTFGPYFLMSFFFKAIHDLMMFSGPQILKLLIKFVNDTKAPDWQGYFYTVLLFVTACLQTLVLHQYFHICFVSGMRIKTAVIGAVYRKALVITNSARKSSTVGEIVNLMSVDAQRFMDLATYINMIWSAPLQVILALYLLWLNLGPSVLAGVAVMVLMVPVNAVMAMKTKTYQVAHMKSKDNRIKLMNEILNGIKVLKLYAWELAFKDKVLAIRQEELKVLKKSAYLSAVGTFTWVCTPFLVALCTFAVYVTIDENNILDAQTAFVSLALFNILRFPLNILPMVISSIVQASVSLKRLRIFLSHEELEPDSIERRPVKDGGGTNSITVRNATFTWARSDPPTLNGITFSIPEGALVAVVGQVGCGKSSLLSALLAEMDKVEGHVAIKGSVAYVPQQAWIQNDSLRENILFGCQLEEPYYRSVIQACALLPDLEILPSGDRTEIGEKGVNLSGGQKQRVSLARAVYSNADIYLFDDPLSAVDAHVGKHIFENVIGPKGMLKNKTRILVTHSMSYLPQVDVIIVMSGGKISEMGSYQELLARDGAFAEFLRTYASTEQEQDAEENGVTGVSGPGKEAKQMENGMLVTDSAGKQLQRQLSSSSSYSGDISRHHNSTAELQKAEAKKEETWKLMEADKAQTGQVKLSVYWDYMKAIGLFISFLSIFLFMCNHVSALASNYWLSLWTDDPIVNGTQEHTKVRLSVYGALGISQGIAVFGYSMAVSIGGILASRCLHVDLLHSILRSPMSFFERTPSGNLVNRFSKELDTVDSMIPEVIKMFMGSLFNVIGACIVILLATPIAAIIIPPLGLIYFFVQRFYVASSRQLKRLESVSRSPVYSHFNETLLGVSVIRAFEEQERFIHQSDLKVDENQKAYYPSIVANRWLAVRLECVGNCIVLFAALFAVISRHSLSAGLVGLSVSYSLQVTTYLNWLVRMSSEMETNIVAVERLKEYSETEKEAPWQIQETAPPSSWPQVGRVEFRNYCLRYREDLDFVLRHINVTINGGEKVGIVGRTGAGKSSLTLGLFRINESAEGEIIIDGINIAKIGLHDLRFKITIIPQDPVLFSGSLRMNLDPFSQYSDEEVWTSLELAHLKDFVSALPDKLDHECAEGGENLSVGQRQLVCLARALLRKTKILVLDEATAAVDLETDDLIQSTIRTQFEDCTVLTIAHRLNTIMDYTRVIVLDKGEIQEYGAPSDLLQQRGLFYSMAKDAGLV
# method_notes: Inhibitory activity against human transporter MRP1 (Multidrug resistance associated protein 1) expressed in COR.L23/R cell line
Keep in mind that pIC50 stands for -log10 of concentration in molar terms.

Before answering, review these 5 worked examples.
[[record]]
item_smiles = "N#Cc1c2n(c3c(N4CCN(CCc5ccccc5Cl)CC4)ncnc13)CCCC2"
measurement_kind = "pIC50"
result_number = 6.02

[[record]]
item_smiles = "CN(CCc1ccccc1)c1ncnc2c(C#N)c3n(c12)CCCC3"
measurement_kind = "pIC50"
result_number = 5.05

[[record]]
item_smiles = "N#Cc1c2n(c3c(NCCc4ccccc4)ncnc13)CCCC2"
measurement_kind = "pIC50"
result_number = 5.20

[[record]]
item_smiles = "N#Cc1c2n(c3c(N4CCN(CCc5ccc(Cl)cc5)CC4)ncnc13)CCCC2"
measurement_kind = "pIC50"
result_number = 6.40

[[record]]
item_smiles = "O=C(c1ccccc1)c1c2n(c3c(N4CCN(CCc5ccccc5)CC4)ncnc13)CCCC2"
measurement_kind = "pIC50"
result_number = 5.86


Consider the molecule shown here: `c1ccc(CCN2CCN(c3ncnc4c(-c5ncccn5)c5n(c34)CCCC5)CC2)cc1` What is its recorded pIC50?
6.17

Consider the molecule shown here: `N#Cc1c2n(c3c(NCCN4CCc5ccccc5C4)ncnc13)CCCC2` What is its recorded pIC50?
5.20

Consider the molecule shown here: `COc1cccc(CCN2CCN(c3ncnc4c(C#N)c5n(c34)CCCC5)CC2)c1` What is its recorded pIC50?
5.64

Consider the molecule shown here: `N#Cc1c2n(c3c(N4CCN(CCc5ccc(F)c(F)c5)CC4)ncnc13)CCCC2` What is its recorded pIC50?
6.64

Consider the molecule shown here: `N#Cc1c2n(c3c(N4CCN(CCc5ccccc5[N+](=O)[O-])CC4)ncnc13)CCCC2` What is its recorded pIC50?
5.85
